system: CCRIS mutagenicity, Ames/micronucleus/aberration tests; assay: CCRIS mutagenicity studies; details: Test System: UDS RAT HEPATOCYTES; Strain/Indicator: THY INCORP; Metabolic Activation: NONE; Method: LIQUID SCINTILLATION COUNTING
Active and inactive are the calls of the source. The rule behind the calls is not given here.
Write down one outcome, taken from TRUE for active, FALSE for inactive

C=CC#N : TRUE
C=CCc1ccc2c(c1)OCO2 : TRUE
CC(C)(Oc1ccc(C2CC2(Cl)Cl)cc1)C(=O)O (configuration not stated) : FALSE
Cn1c(N)nc2c3cccnc3ccc21 : FALSE
CCCCC(CC)COC(=O)c1ccccc1C(=O)OCC(CC)CCCC (configuration not stated) : TRUE
C1=Cc2c3ccc4ccccc4c3cc3cccc1c23 : TRUE

Name the outcome recorded for O=C(c1ccccc1)C(O)c1ccccc1 (configuration not stated) in the assay.
TRUE

* * *

system: CCRIS mutagenicity, Ames/micronucleus/aberration tests; assay: CCRIS mutagenicity studies; details: Test System: AMES SALMONELLA TYPHIMURIUM; Strain/Indicator: TA1535; Metabolic Activation: RAT, LIVER, S-9, AROCLOR 1254 (10%); Method: PREINCUBATION
Calls of active or inactive are those of the source. How the calls were made is not given here.
Please state which outcome applies, choosing from active, inactive

Reference set (4 entries):
C[C@](N)(Cc1ccc(O)c(O)c1)C(=O)O : inactive
Nc1c(N=Nc2ccc(-c3ccc(NN=C4C=CC(=O)C=C4)cc3)cc2)c(S(=O)(=O)O)cc2c1C(=O)/C(=N/Nc1ccccc1)C(S(=O)(=O)O)=C2 : active
OC1C2(Cl)C3(Cl)C4(Cl)C(Cl)(Cl)C5(Cl)C3(Cl)C1(Cl)C5(Cl)C24Cl (stereo not given) : inactive
CC(C)(c1ccc(OCC2CO2)cc1)c1ccc(OCC2CO2)cc1 (stereo not given) : active

Kindly review the next compound as well.
Outcome logged for CCCCNC(=O)n1c(NC(=O)OC)nc2ccccc21 in this assay:
inactive

* * *

test system: CCRIS mutagenicity, Ames/micronucleus/aberration tests; assay: CCRIS mutagenicity studies; settings: Test System: AMES SALMONELLA TYPHIMURIUM; Strain/Indicator: TA100; Metabolic Activation: HAMSTER, LIVER, S-9, AROCLOR 1254 (10%); Method: PREINCUBATION
The source made the active and inactive calls. The rule behind the calls is not given here.
Respond only with the outcome that fits, drawn from yes (1) = active, no (0) = inactive

Field: example entries. Status: answers known.
CC(C)CCC[C@@H](C)[C@H]1CC[C@H]2[C@@H]3CC=C4C[C@@H](OC(=O)Cc5ccc(N(CCCl)CCCl)cc5)CC[C@]4(C)[C@H]3CC[C@]12C : no (0)
Nc1ccn([C@@H]2O[C@H](CO)[C@@H](O)[C@@H]2O)c(=O)n1 : no (0)
O=C1c2ccccc2-c2ccc3c4c(ccc1c24)-c1ccccc1C3=O : no (0)
C[C@](N)(Cc1ccc(O)c(O)c1)C(=O)O : no (0)

Turning to the following compound.
GET /call?item= Nc1ccccc1C(=O)OC/C=C/c1ccccc1 returns the recorded outcome of this test.
no (0)

* * *

test system: CCRIS mutagenicity, Ames/micronucleus/aberration tests; assay: CCRIS mutagenicity studies; settings: Test System: AMES SALMONELLA TYPHIMURIUM; Strain/Indicator: TA1537; Metabolic Activation: HAMSTER, LIVER, S-9, AROCLOR 1254 (10%); Method: PREINCUBATION
Active and inactive are the calls of the source. No rule for the calls is given here.
quantity_name: mutagenic call

CCCCCCC(C)COC(=O)c1ccccc1C(=O)OCC(C)CCCCCC (stereo not drawn) : inactive; negative
C=CC[Si](C)(C)C : inactive; negative
CCCCCCCCCCCOC(=O)c1ccccc1C(=O)OCCCCCCCCCCC : inactive; negative

* * *

tested on: CCRIS mutagenicity, Ames/micronucleus/aberration tests; test: CCRIS mutagenicity studies; settings: Test System: AMES SALMONELLA TYPHIMURIUM; Strain/Indicator: TA98; Metabolic Activation: S-9; Method: PREINCUBATION
Calls of active or inactive are those of the source. No rule for the calls is given here.
quantity_name: mutagenic call

O=S(=O)(O)c1cc(S(=O)(=O)O)c2c(N=Nc3ccc(S(=O)(=O)O)c4ccccc34)c(O)ccc2c1 : inactive; negative
ClCC1CO1 (stereo not drawn) : inactive; negative
CCOCn1cc(F)c(=O)n(C(=O)c2cccc(C(=O)Oc3nc(OC(=O)c4ccccc4)ccc3C#N)c2)c1=O : inactive; negative

* * *

tested on: CCRIS mutagenicity, Ames/micronucleus/aberration tests; assay: CCRIS mutagenicity studies; conditions: Test System: AMES SALMONELLA TYPHIMURIUM; Strain/Indicator: TA98; Metabolic Activation: RAT, LIVER, S-9, AROCLOR 1254 (10%); Method: PREINCUBATION
Activity calls are given as the source filed them. No rule for the calls is given here.
Would you mind answering with one of these outcomes? active, inactive

C=C(C)c1ccccc1 : inactive
Nc1ccccn1 : inactive
CNc1ccc(O)cc1 : inactive
CCCCNC(=O)n1c(NC(=O)OC)nc2ccccc21 : inactive
COC(=O)c1ccc(/C=N/n2nnc3c([nH]c4ccccc43)c2=O)cc1 : active

Could you please tell me the result logged for CC(=O)OCc1ccc2c(c1)OCO2 in this assay?
inactive

Kindly provide the recorded test outcome for the following compound: CCCC(=O)c1cc(O)c(O)cc1O
inactive

Hi, sorry to bother you, what did the test record for C=C1C/C(=C/C)C(=O)O[C@@H]2CCN3CC=C(COC(=O)[C@]1(C)O)[C@H]23 ?
inactive

I would be grateful if you could indicate the recorded call for CCCCCC(N)=O .
inactive

I would be grateful if you could indicate the recorded call for Nc1ccc2ccccc2c1N=Nc1ccc([N+](=O)[O-])cc1 .
active

Dear colleague, could you share the recorded outcome for NC(=O)c1cnccn1 when you have a moment?
inactive

Can you look up the reported call for O=P(OC(CCl)CCl)(OC(CCl)CCl)OC(CCl)CCl for me?
inactive

Call for entry CCCCCCCCCCCCCOC(=O)c1ccccc1C(=O)OCCCCCCCCCCCCC :
inactive

* * *

tested on: CCRIS mutagenicity, Ames/micronucleus/aberration tests; assay: CCRIS mutagenicity studies; conditions: Test System: AMES SALMONELLA TYPHIMURIUM; Strain/Indicator: TA98; Metabolic Activation: HAMSTER, LIVER, S-9, AROCLOR 1254 (30%); Method: PREINCUBATION
Calls of active or inactive are those of the source. The rule behind the calls is not given here.
Thanks in advance; please answer with one of these: yes for active, no for inactive

What was the test verdict on C[C@](N)(Cc1ccc(O)c(O)c1)C(=O)O ?
no

Each molecule tested received a call. Report the one for FCC1CO1 (stereo not given) .
no

Tell me the assay call for Cc1cc(-c2cc(C)c(N)c(C)c2)cc(C)c1N please.
no

# lookup: test call for CC(C)(C)OOC(C)(C)C
no

For CCOc1cccc(N)c1 , what call appears in the results of this test?
no

Record lookup: outcome of this test for [CH3][Hg+] ?
no

What classification did O=C(Cl)C(Cl)Cl end up with in this test?
no

Hi team, can someone confirm the assay call for Oc1c(Cl)c(Cl)cc(Cl)c1Cl ?
no

Entry CCN(CC)c1ccc(N=O)c(O)c1 : call = ?
no

Call for entry Nc1ccc(F)cc1F :
yes

* * *

Tested on: CCRIS mutagenicity, Ames/micronucleus/aberration tests
Experiment: CCRIS mutagenicity studies
Conditions: Test System: AMES SALMONELLA TYPHIMURIUM; Strain/Indicator: TA100; Metabolic Activation: RAT, LIVER, S-9, AROCLOR 1254; Method: STANDARD PLATE
Description: The CCRIS database contains chemical records with carcinogenicity, mutagenicity, tumor promotion, and tumor inhibition test results. It was developed by the National Cancer Institute (NCI). Data are derived from studies cited in primary journals, current awareness tools, NCI reports, and other sources. Test results have been reviewed by experts in carcinogenesis and mutagenesis. CCRIS provides historical information from the years 1985 - 2011. It is no longer updated. […]
The source made the active and inactive calls. How the calls were made is not given here.
Please state which outcome applies, choosing from yes (1) (active), no (0) (inactive)

Some solved entries appear below for comparison.
c1ccc2nc3ccccc3cc2c1 : no (0)
O=C(O)[C@H](O)[C@@H](O)C(=O)O : no (0)

Tell me the recorded outcome of this test for O=C(O)CCc1ccccc1 .
no (0)

Would you mind telling me which call this test gave O=C1c2cccc(O)c2C(=O)c2cccc(O)c21 ?
no (0)

Record lookup: outcome of this test for CN(C)c1ccc(Cc2ccc(N(C)C)cc2)cc1 ?
no (0)

Which outcome did this test record for the compound O=C(O)COc1cc(Cl)c(Cl)cc1Cl ?
no (0)

// param item: Cc1ccc2nc(-c3ccc(N)cc3)sc2c1 ; yields the recorded call
yes (1)

Dear all, I need the recorded test outcome for CCOC(=O)c1ccc(N(O)C=O)cc1 , thank you.
no (0)

Lab log entry: COc1ccc(S(=O)(=O)n2ncc(Cl)c(Cl)c2=O)cc1 — outcome as called in the assay?
no (0)

Dear colleague, could you share the recorded outcome for C=Cc1ccc(N)cc1 when you have a moment?
no (0)

Test call, this compound: Cc1nc2c(c3[nH]c4ccccc4c13)C(=O)C(N1CCN(C)CC1)=CC2=O
no (0)
